src = patent US20070213305A1

tested on: human B cell lymphoblastoid cell line Ramos; assay: Caspase cascade activation in Ramos cells; type: cell-based; settings: 48 h, read-out: Caspase Activation Potency EC50 (nM) (48 h) Ramos
readoutLabel: EC50 (nM)
Give the value in nM but do not write nM after it.

Prompt: Item COc1ccc(N(C)c2nc(C)nc3sccc23)cc1.Cl [Example 5, hydrochloride] has what recorded EC50?
Completion: 27

###

test system: human breast cancer cell line T-47D; assay: Caspase cascade activation (DEVD-R110 fluorogenic substrate) in T-47D cells; assay type: cell-based; conditions: Homo sapiens, T47D, 24 h, read-out: Caspase Activation Potency EC50 (nM) (24 h) T-47D
Where a name gives a salt, the structure may show the parent alone.
Class definitions on EC50: Low: < 20 nM; Medium: ≥ 20 nM and < 200 nM; High: ≥ 200 nM

Prompt: Record COc1ccc(Nc2nc(C)nc3scc(C)c23)cc1 [Example 13, hydrochloride] — which class?
Completion: High

Prompt: Input COc1ccc(N(C)c2ncnc3cc(-c4cccnc4)sc23)cc1 [Example 8] ; output its category
Completion: High

Prompt: Given COc1ccc(N(C)c2nc(C)nc3sccc23)cc1.Cl [Example 5, hydrochloride] , name the class its EC50 places it in.
Completion: Low

Prompt: # bin label for COc1ccc(N(C)c2ncnc3scc(C)c23)cc1 [Example 12]
Completion: Low

Prompt: Which of the defined bands does the recorded EC50 of COc1ccc(N(C)c2ncnc3ccsc23)cc1OC [Example 26] sit within?
Completion: High

Prompt: Lab note: sort COc1ccc(Nc2ncnc3scc(C)c23)cc1 [Example 11] into the matching EC50 band.
Completion: High

Prompt: Hey, which category is COC(=O)c1ccc(N(C)c2ncnc3ccsc23)cc1 [Example 22, hydrochloride] in, do you know?
Completion: Medium

Prompt: The entry to classify is COc1ccc(OC)c(N(C)c2ncnc3ccsc23)c1 [Example 21] ; which class holds it?
Completion: High

Prompt: Sort into band: COc1ccc(N(C)c2nc(C)nc3sc(C)c(C)c23)cc1 [Example 24]
Completion: Low

Prompt: Kindly state the category for this molecule: COc1ccc(N(C)c2nc(C)nc3c(C)csc23)cc1 [Example 3]
Completion: High

Prompt: Exercise: read the entry COc1cccc(N(C)c2ncnc3ccsc23)c1 [Example 27] and state which class it falls under.
Completion: High

Prompt: Place this molecule in its band: COc1cc(OC)cc(N(C)c2ncnc3ccsc23)c1 [Example 28]
Completion: High

Prompt: Consider COc1ccc(N(C)c2ncnc3ccsc23)cc1 [Example 6] . To which EC50 class does it belong?
Completion: Medium

Prompt: Form field 'band' for COc1ccc(N(C)c2nc(C)nc3ccsc23)cc1 [Example 1]
Completion: Low

Prompt: Exam item: assign COc1ccc(N(C)c2nc(SC)nc3ccsc23)cc1 [Example 20, hydrochloride] to the correct category.
Completion: Medium

Prompt: # classify by EC50 band: COc1ccccc1N(C)c1ncnc2ccsc12 [Example 25]
Completion: High

Prompt: Textbook exercise: identify the category of the molecule given here, COc1ccc(N(C)c2ncnc3cc(I)sc23)cc1 [Example 7] , according to its measured value.
Completion: High

Prompt: Form field 'band' for COc1ccc(N(C)c2ncnc3sc(C)c(C)c23)cc1 [Example 23]
Completion: Low

Prompt: Hello team, could you let me know which band the following molecule falls into: COc1ccc(N(C)c2ncnc3sc(C)cc23)cc1 [Example 18, hydrochloride]
Completion: Medium

Prompt: Bin? COc1ccc(OC)c(N(C)c2nc(C)nc3ccsc23)c1 [Example 16]
Completion: High

Prompt: Which class is correct for the following molecule? COc1ccc(Nc2ncnc3ccsc23)cc1 [Example 14, hydrochloride]
Completion: High

Prompt: Input Cc1cc(N(C)c2ncnc3ccsc23)no1 [Example 17] ; output its category
Completion: High

Prompt: Quick check: band for COc1ccc(N(C)c2ncnc3c(C)csc23)cc1 [Example 10]
Completion: High
